Catalogue of Relative luminescence activity, bis-CTZ, Int. readings, one per entry.
TEST METHOD NOTES: Substrate specificity of WNanoKAZ mutants, crude enzyme solution (Example 11)
Type: biochemical
STATED CONDITIONS: Int.
PROPERTY: Relative luminescence activity, bis-CTZ, Int.

>>> number("WNanoKAZ-I138Y: single amino acid-substituted WNanoKAZ mutant I138Y; SEQ ID NO: 14 (protein) FTLADFVGDWQQTAGYNQDQVLEQGGLSSLFQALGVSVTPIQKVVLSGENGLKADIHVIIPYEGLSGFQMGLIEMIFKVVYPVDDHHFKVILHYGTLVIDGVTPNMIDYFGRPYEGIAVFDGKKITVTGTLWNGNKIYDERLINPDGSLLFRVTINGVTGWRLCERILA")
17
>>> number("KAZ: 19 kDa protein of native Oplophorus luciferase having luminescence activity; SEQ ID NO: 2 (protein, listed as Oplophorus gracilirostris) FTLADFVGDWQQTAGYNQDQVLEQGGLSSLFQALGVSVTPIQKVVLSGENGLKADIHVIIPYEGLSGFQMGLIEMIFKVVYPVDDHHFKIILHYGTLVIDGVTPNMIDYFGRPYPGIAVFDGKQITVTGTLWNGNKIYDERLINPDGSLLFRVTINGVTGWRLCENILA")
0.1

Sourced from patent US10184116B2
